# Tested on: Helicobapter pylori
# Protocol summary: Inhibition halos of the bacterial growth (impregnated disks on agar)
# Format: cell-based
# Experimental setup: strain 3, 1 µg/disk
# Description: Comparison substance: Metronidazole Solubilization of the substances : All the substances to be studied are dissolved at room temperature in DMSO. […] After 48 hours of anaerobiosis incubation, as above described, the inhibition halos of the bacterial growth, produced by the different activity of the substances inside the agar, are evaluated.
Assay endpoint: Inhibition halo (mm) at the concentration (µg/disk)
Could you give me the number in mm? Just the number is fine.

Reported Inhibition halo (mm) at the concentration (µg/disk) of Cc1ccc(C(C)(C)C)c(O)c1C(O)c1ncc([N+](=O)[O-])n1C (centres unmarked) : 22

Reported Inhibition halo (mm) at the concentration (µg/disk) of COc1cc(C(O)c2ncc([N+](=O)[O-])n2C)c(O)c(C(C)(C)C)c1 (centres unmarked) : 30

Reported Inhibition halo (mm) at the concentration (µg/disk) of Cc1ncc([N+](=O)[O-])n1CCO [Metronidazole, reference compound] : 0

Reported Inhibition halo (mm) at the concentration (µg/disk) of Cn1c([N+](=O)[O-])cnc1C(O)c1cc(C(C)(C)C)cc(C(C)(C)C)c1O (centres unmarked) : 12

Reported Inhibition halo (mm) at the concentration (µg/disk) of Cc1cc(C(O)c2ncc([N+](=O)[O-])n2C)c(O)c(C(C)(C)C)c1 (centres unmarked) : 24

* * *

# System: Helicobapter pylori
# Protocol summary: Inhibition halos of the bacterial growth (impregnated disks on agar)
# Assay type: cell-based
# Experimental setup: strain 9, 10 µg/disk
Assay endpoint: Inhibition halo (mm) at the concentration (µg/disk)
Could you give me the number in mm? Just the number is fine.

Reported Inhibition halo (mm) at the concentration (µg/disk) of Cc1ccc(C(C)(C)C)c(O)c1C(O)c1ncc([N+](=O)[O-])n1C (centres unmarked) : 30

Reported Inhibition halo (mm) at the concentration (µg/disk) of Cc1cc(C(O)c2ncc([N+](=O)[O-])n2C)c(O)c(C(C)(C)C)c1 (centres unmarked) : 33

Reported Inhibition halo (mm) at the concentration (µg/disk) of COc1cc(C(O)c2ncc([N+](=O)[O-])n2C)c(O)c(C(C)(C)C)c1 (centres unmarked) : 43

Reported Inhibition halo (mm) at the concentration (µg/disk) of Cn1c([N+](=O)[O-])cnc1C(O)c1cc(C(C)(C)C)cc(C(C)(C)C)c1O (centres unmarked) : 24

Reported Inhibition halo (mm) at the concentration (µg/disk) of Cc1ncc([N+](=O)[O-])n1CCO [Metronidazole, reference compound] : 38

* * *

# Tested on: Helicobapter pylori
# Protocol summary: Inhibition halos of the bacterial growth (impregnated disks on agar)
# Format: cell-based
# Experimental setup: strain 1, 10 µg/disk
Assay endpoint: Inhibition halo (mm) at the concentration (µg/disk)
Could you give me the number in mm? Just the number is fine.

Sample Cn1c([N+](=O)[O-])cnc1C(O)c1cc(C(C)(C)C)cc(C(C)(C)C)c1O (centres unmarked) , system: Helicobapter pylori. Its Inhibition halo (mm) at the concentration (µg/disk) is 23

Sample COc1cc(C(O)c2ncc([N+](=O)[O-])n2C)c(O)c(C(C)(C)C)c1 (centres unmarked) , system: Helicobapter pylori. Its Inhibition halo (mm) at the concentration (µg/disk) is 50

Sample Cc1ncc([N+](=O)[O-])n1CCO [Metronidazole, reference compound] , system: Helicobapter pylori. Its Inhibition halo (mm) at the concentration (µg/disk) is 45

Sample Cc1ccc(C(C)(C)C)c(O)c1C(O)c1ncc([N+](=O)[O-])n1C (centres unmarked) , system: Helicobapter pylori. Its Inhibition halo (mm) at the concentration (µg/disk) is 33

Sample Cc1cc(C(O)c2ncc([N+](=O)[O-])n2C)c(O)c(C(C)(C)C)c1 (centres unmarked) , system: Helicobapter pylori. Its Inhibition halo (mm) at the concentration (µg/disk) is 40

* * *

# Tested on: Helicobapter pylori
# Protocol summary: Inhibition halos of the bacterial growth (impregnated disks on agar)
# Assay type: cell-based
# Experimental setup: strain 7, 1 µg/disk
Assay endpoint: Inhibition halo (mm) at the concentration (µg/disk)
Show the value, then the unit it is measured in.

Reported Inhibition halo (mm) at the concentration (µg/disk) of Cc1ccc(C(C)(C)C)c(O)c1C(O)c1ncc([N+](=O)[O-])n1C (centres unmarked) [EU11104] : 22 mm

Reported Inhibition halo (mm) at the concentration (µg/disk) of Cn1c([N+](=O)[O-])cnc1C(O)c1cc(C(C)(C)C)cc(C(C)(C)C)c1O (centres unmarked) [EU11102] : 14 mm

Reported Inhibition halo (mm) at the concentration (µg/disk) of COc1cc(C(O)c2ncc([N+](=O)[O-])n2C)c(O)c(C(C)(C)C)c1 (centres unmarked) [EU11100] : 28 mm

Reported Inhibition halo (mm) at the concentration (µg/disk) of Cc1ncc([N+](=O)[O-])n1CCO [Metronidazole, reference compound] : 0 mm

Reported Inhibition halo (mm) at the concentration (µg/disk) of Cc1cc(C(O)c2ncc([N+](=O)[O-])n2C)c(O)c(C(C)(C)C)c1 (centres unmarked) [EU11103] : 20 mm

* * *

# System: Helicobapter pylori
# Protocol summary: Minimal inhibiting concentration (agar dilution)
# Format: cell-based
# Experimental setup: strain 6
Assay endpoint: MIC

Reported MIC of Cn1c([N+](=O)[O-])cnc1C(O)c1cc(C(C)(C)C)cc(C(C)(C)C)c1O (stereo not shown) [EU11102] : 0.5 µg/mL

Reported MIC of COc1cc(C(O)c2ncc([N+](=O)[O-])n2C)c(O)c(C(C)(C)C)c1 (stereo not shown) [EU11100] : 0.03 µg/mL

Reported MIC of Cc1cc(C(O)c2ncc([N+](=O)[O-])n2C)c(O)c(C(C)(C)C)c1 (stereo not shown) [EU11103] : 0.03 µg/mL

Reported MIC of Cc1ncc([N+](=O)[O-])n1CCO [Metronidazole, reference compound] : 0.12 µg/mL

* * *

# Test system: Helicobapter pylori
# Protocol summary: Minimal inhibiting concentration (agar dilution)
# Format: cell-based
# Experimental setup: strain 4
Assay endpoint: MIC
Show the value, then the unit it is measured in.

Reported MIC of Cc1ncc([N+](=O)[O-])n1CCO [Metronidazole, reference compound] : 0.25 µg/mL

Reported MIC of Cn1c([N+](=O)[O-])cnc1C(O)c1cc(C(C)(C)C)cc(C(C)(C)C)c1O (stereo not shown) : 0.5 µg/mL

Reported MIC of COc1cc(C(O)c2ncc([N+](=O)[O-])n2C)c(O)c(C(C)(C)C)c1 (stereo not shown) : 0.03 µg/mL

Reported MIC of Cc1cc(C(O)c2ncc([N+](=O)[O-])n2C)c(O)c(C(C)(C)C)c1 (stereo not shown) : 0.03 µg/mL

* * *

# Protocol summary: Oral and intraperitoneal acute toxicity in mice (LD50, Probits method)
# Type: in vivo
# Experimental setup: mouse, in vivo, po; Swiss female mice, per os, 14 days observation; read-out: LD50 os
Assay endpoint: LD50 at 336 h

Reported LD50 at 336 h of COc1cc(C(O)c2ncc([N+](=O)[O-])n2C)c(O)c(C(C)(C)C)c1 (stereo not shown) : > 5000 mg/kg
